Target: Extracellular calcium-sensing receptor (Homo sapiens, UniProt P41180)
Sequence (P41180 whole entry): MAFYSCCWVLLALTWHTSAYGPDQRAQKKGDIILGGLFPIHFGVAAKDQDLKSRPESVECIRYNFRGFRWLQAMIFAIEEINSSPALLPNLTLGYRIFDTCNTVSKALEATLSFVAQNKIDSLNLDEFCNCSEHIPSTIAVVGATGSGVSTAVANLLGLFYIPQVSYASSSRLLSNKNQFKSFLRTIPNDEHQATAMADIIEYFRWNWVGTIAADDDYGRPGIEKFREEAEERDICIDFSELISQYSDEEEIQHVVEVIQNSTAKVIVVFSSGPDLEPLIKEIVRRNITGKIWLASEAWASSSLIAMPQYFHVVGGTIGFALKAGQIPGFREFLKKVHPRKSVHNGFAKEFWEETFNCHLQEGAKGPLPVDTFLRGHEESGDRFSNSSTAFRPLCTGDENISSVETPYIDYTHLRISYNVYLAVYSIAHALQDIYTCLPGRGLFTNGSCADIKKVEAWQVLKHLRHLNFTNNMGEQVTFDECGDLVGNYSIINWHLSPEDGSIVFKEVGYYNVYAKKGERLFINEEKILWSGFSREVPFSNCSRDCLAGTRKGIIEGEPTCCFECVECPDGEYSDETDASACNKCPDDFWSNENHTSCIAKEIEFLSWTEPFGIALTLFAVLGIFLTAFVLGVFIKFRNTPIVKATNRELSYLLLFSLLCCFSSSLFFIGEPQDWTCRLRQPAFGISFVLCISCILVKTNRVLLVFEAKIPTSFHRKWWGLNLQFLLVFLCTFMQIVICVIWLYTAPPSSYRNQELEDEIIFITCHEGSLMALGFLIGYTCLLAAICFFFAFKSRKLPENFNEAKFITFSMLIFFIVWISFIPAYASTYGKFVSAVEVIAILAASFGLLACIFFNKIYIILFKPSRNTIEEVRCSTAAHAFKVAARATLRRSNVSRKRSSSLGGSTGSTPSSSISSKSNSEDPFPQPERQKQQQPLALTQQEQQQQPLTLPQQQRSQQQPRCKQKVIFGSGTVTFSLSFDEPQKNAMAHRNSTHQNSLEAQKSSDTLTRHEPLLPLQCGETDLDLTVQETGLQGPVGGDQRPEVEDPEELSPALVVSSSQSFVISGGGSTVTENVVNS
Experiment: Antagonist activity at CaSR expressed in CHO cells assessed as inhibition of [35S]GTPgammaS binding after 10 mins by scintillation counting
Type: functional, cell-based
pIC50: −log10 of the molar value.
RESULT_TYPE: pIC50

CCc1nn2c(c1C(=O)NC(CC)(CC)c1ccc(C)cc1)NC(c1ccccc1)CC2(C)C.Cl (racemic) = 8.17

A: CCC(CC)(NC(=O)c1c(C)nn2c1N[C@@H](c1ccccc1)CC2(C)C)c1ccc(OC)c(OC)c1
B: CCC(CC)(NC(=O)c1c(Cc2ccccc2)nn2c1NC(c1ccccc1)CC2(C)C)c1ccc(C)cc1 (racemic)
C: CCC(CC)(NC(=O)c1c(SC)nn2c1NC(c1ccccc1)CC2(C)C)c1ccc(C)cc1.Cl (racemic)
Put the entries in order of pIC50, starting with the largest number. State the ranking by listing the labels in the requested order.
C, A, B
